tested on: CDK11; construct: gene CDK19; settings: concentration: 1 μM, replicates: in singlicate; n = 1;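 also: KINOMEscan kinase panel screen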
Cut-off 6% on %Inh: below means 1, at or above means 0.

COc1ccc(C2=C(Nc3cccc(O)c3)C(=O)NC2=O)cc1 [SB-390766]: 0
COc1cc(Nc2ccnc3cc(-c4ccncc4)ccc23)cc(OC)c1OC.Cl [GW494610]: 1
O=C(Nc1n[nH]c2cc(-c3cccs3)ccc12)C1CC1 [SB-731284]: 1
CCn1c(-c2nonc2N)nc2c(-c3ccccc3)ncc(OCCCN)c21.O=C(O)C(F)(F)F.O=C(O)C(F)(F)F [GSK260205]: 1
Cc1ccccc1CC(=O)N1CCc2cc(-c3cn(C)c4ncnc(N)c34)ccc21 [GSK2603346]: 0

is_below(%Inh, 6%) for Cl.Cl.NCC(NC(=O)c1cc(-c2cccnc2)c(-c2ccnc3[nH]ccc23)s1)c1ccccc1 (stereo not drawn) [GSK1323434] ?
0

And Fc1cc(Cl)ccc1Nc1ccnc2cc(-c3ccc(CN4CCSCC4)o3)ccc12 [GW560106] ?
1

And CN(C)CCNS(=O)(=O)c1ccc(-c2ccnc3[nH]ccc23)cc1 [GSK977620] ?
1

And O=C(Nc1n[nH]c2nc(-c3cccc(O)c3)ccc12)C1CC1 [SB-711805] ?
1

And COC(=O)Nc1nc2cc(Oc3ccc(NC(=O)Nc4cccc(SC)c4)cc3)ccc2[nH]1.Cl [GW697999] ?
0

And CC(=O)Nc1cn2nc(Oc3cccc(NC(=O)c4cccc(C(F)(F)F)c4)c3)ccc2n1 ?
0

And Cc1nn2c(=O)cc(N3CCO[C@H](C)C3)nc2n1Cc1cccc(Cl)c1Cl [GSK2373693] ?
1

And Nc1ncc(-c2cn[nH]c2)c2scc(-c3ccc4c(c3)CCN4C(=O)Cc3ccccc3)c12 [GSK2593067] ?
0

====

system: FLT3-autoinhibited; conditions: concentration: 1 μM, replicates: in singlicate; n = 1
Cut-off 20% on %Inh: below means Y, at or above means N.

CN(C)c1ncnc2nc[nH]c12: Y

is_below(%Inh, 20%) for CCNC(=O)/C=C/c1n[nH]c2cc(Sc3ccccc3C(=O)NC)ccc12 ?
N

And O=C(Nc1n[nH]c2nc(-c3cccc(O)c3)ccc12)C1CC1 ?
N

====

tested on: LIMK2; details: concentration: 1 μM, replicates: in singlicate; n = 1
endpoint: %Inh (%)
One number for each entry, in %.

Quick request: %Inh for each listed item, please.
1. Cc1cccc(Nc2nc(NCCN)ncc2C(N)=O)c1
2. CCNC(=O)/C=C/c1n[nH]c2cc(Sc3ccccc3C(=O)NC)ccc12
3. Cc1cc(-c2ccnc(Nc3cccc(C#N)c3)n2)cc(C)c1O

[0, 11, 42]

Quick request: %Inh for each listed item, please.
1. O=C(Nc1n[nH]c2nc(-c3ccccc3)ccc12)C1CC1
2. Cn1cc(-c2cnc(N)c3c(-c4ccc5c(c4)CCN5C(=O)Cc4ccccc4)csc23)cn1

1: 31; 2: 55

Quick request: %Inh for each listed item, please.
1. COc1cccc(CC(=O)N2CCc3cc(-c4cn(C)c5ncnc(N)c45)ccc32)c1
2. O=C(O)C(F)(F)F.O=c1[nH]ccc2nc(N[C@@H]3CCNC3)nc(Nc3ccc4c(c3)S(=O)(=O)CC4)c12
3. CCn1c(-c2nonc2N)nc2c(-c3ccccc3)ncc(OCCCN)c21.O=C(O)C(F)(F)F.O=C(O)C(F)(F)F

1: 35; 2: 0; 3: 0
